- Test system: K-562 leukemia
- assayOverview: NCI-60 one-dose screen, 48 h (100 = growth as untreated, 0 = no growth, -100 = all killed)
- studyConditions: 10 µM unless noted
Compounds without any hit were thinned out: in the full panel of roughly 83,000, 20% have a hit.

- compound: "Cc1cc2[nH]c(=O)c3c4ncccc4cn3c2cc1C"
  measurementUnits: "%"
  growth: 3.34
- compound: "O=C1COCCN1c1ccc(NCc2cn(C(=O)c3ccc(Cl)cc3)c3ccccc23)cc1"
  measurementUnits: "%"
  growth: 28.3
- compound: "COc1c(B(O)O)cc(F)cc1-c1nc2ccc3[nH]ncc3c2c2c1CCCC2"
  measurementUnits: "%"
  growth: 30.5
- compound: "NCCCNc1nc2ccccc2c2c(=O)c3cccc(F)c3sc12"
  measurementUnits: "%"
  growth: -28.2
- compound: "COc1ccc(/C=C/c2c(C(=O)/C=C/c3ccc(C(F)(F)F)cc3)c(C)nc3ccccc23)cc1"
  measurementUnits: "%"
  growth: 8.15
- compound: "CC(=O)OC[C@H]1OC(Sc2sc(C(=O)c3ccc(Cl)cc3)c(N)c2-c2nc3ccccc3s2)[C@H](OC(C)=O)[C@@H](OC(C)=O)[C@@H]1OC(C)=O (stereo not given in full)"
  measurementUnits: "%"
  growth: 87.7
- compound: "OC(c1ccccc1)C(NC(Cc1ccccc1)c1ccccc1)c1ccccc1 (stereo not given)"
  measurementUnits: "%"
  growth: 82.5
- compound: "Fc1cc(-c2nnc3n2NC(=Nc2ccc(Cl)cc2)CS3)c(Cl)cc1Cl"
  measurementUnits: "%"
  growth: 51.5
- compound: "COc1ccc(-c2nn(C(=O)c3cc(OC)c(OC)c(OC)c3)c3cc(N)ccc23)cc1"
  measurementUnits: "%"
  growth: 8.96
- compound: "CCN1C(=O)N(CC)C2Nn3c(s/c(=C4\\C(=O)N(CC(C)C)c5ccccc54)c3=O)=NC21 (stereo not given)"
  measurementUnits: "%"
  growth: 15.6

* * *

- Tested on: SF-268 CNS
- assayOverview: NCI-60 one-dose screen, 48 h
- studyConditions: 10 µM unless noted
Compounds without any hit were thinned out: in the full panel of roughly 83,000, 20% have a hit. Active and inactive are the calls of the source. Rule for the calls: active = growth percent below 10; inactive = the rest.
Labels: active, inactive

- molecule: "C=C1C(=O)O[C@H]2[C@H]1CC/C(COC(=O)C(C)c1ccc(CC(C)C)cc1)=C\\CC[C@@]1(C)O[C@@H]21 (stereo not given in full)"
  cat: "inactive"
- molecule: "O=C(O)CCC(=O)Nc1nnc(-c2ccccc2)s1"
  cat: "inactive"
- molecule: "CNCCCC12CCC(c3ccccc31)c1ccccc12"
  cat: "inactive"
- molecule: "CN(C)CCN1CCN(c2ncccc2C2Nc3ccccc3-n3cccc32)CC1 (stereo not given)"
  cat: "inactive"
- molecule: "CC(=O)CC(c1ccccc1)c1c(C)[nH]c2ccccc12 (stereo not given)"
  cat: "inactive"
- molecule: "COc1ccc2c(c1)C(C)Cc1c(ncnc1-n1c(C)nc3ccccc31)N2C (stereo not given)"
  cat: "inactive"
- molecule: "Oc1ccc(Cl)cc1Cc1cc(Cl)cc(Cl)c1O"
  cat: "inactive"
- molecule: "NCCCNc1nc2ccccc2c2c(=O)c3cc(OC(F)(F)F)ccc3sc12"
  cat: "inactive"
- molecule: "O=c1c2cc(F)ccc2sc2c(NCCO)nc3ccccc3c12"
  cat: "inactive"
- molecule: "O=c1c2cc(F)ccc2sc2c(N3CCNCC3)nc3ccc(F)cc3c12"
  cat: "inactive"
- molecule: "COc1cc(C(=O)/C=C/c2ccc(OCCCCCC[P+](c3ccccc3)(c3ccccc3)c3ccccc3)cc2)cc(OC)c1OC"
  cat: "active"
- molecule: "O=C1NC(=O)C(c2ccccc2)(c2ccccc2)N1Cc1cn(-c2c3ccccc3nc3ccccc23)nn1"
  cat: "inactive"
- molecule: "CCCCOc1nc2ccc(OC)cc2cc1-c1cc(-c2ccc(Cl)cc2)nc(-c2ccc(Cl)cc2)c1"
  cat: "inactive"
- molecule: "COc1cccc(-c2nc(-c3ccc(NC(=O)c4ccccc4)cc3)[nH]c2-c2ccnc(Br)c2)c1"
  cat: "inactive"
- molecule: "COc1ccc(N)c(N)c1"
  cat: "inactive"
- molecule: "COc1cccc(-c2nc(-c3ccc(NC(=O)C(C)C)cc3)[nH]c2-c2ccnc(Br)c2)c1"
  cat: "inactive"
- molecule: "Nc1nc(Cl)cc(=O)n1Cc1ccccc1"
  cat: "inactive"
- molecule: "c1ccc(CO[C@H]2CO[C@H]3[C@@H]2OC[C@@H]3Oc2ccc(Nc3ncnc4ccsc34)cc2)cc1"
  cat: "inactive"
- molecule: "CN1CCN(c2ccc(-c3cnc4c(-c5csc6ccccc56)cnn4c3)cc2)CC1"
  cat: "active"
- molecule: "CCOc1c(B(O)O)cccc1-c1nc2ccc3[nH]ncc3c2c2c1CCCC2"
  cat: "inactive"
- molecule: "CCCCCCNC(=O)Oc1ccc(/C(=C(\\C)c2ccc(Cl)cc2)c2ccc(OCCN3CCCCC3)cc2)cc1"
  cat: "inactive"
- molecule: "COc1ccc(C(=S)N2CCN(c3cccc(C)c3)CC2)cc1OC"
  cat: "inactive"
- molecule: "CCOC(=O)C1=C(N)Oc2c(sc3c(C)cccc23)C1c1ccc(Cl)cc1 (stereo not given)"
  cat: "inactive"
- molecule: "COc1ccc(-c2ncnc3c2ncn3CC#CCCl)cc1"
  cat: "inactive"
- molecule: "O=C1c2cccc3cccc(c23)C(=O)N1N1C(=O)c2cccc3c(NC4CCCCC4)ccc(c23)C1=O"
  cat: "inactive"
- molecule: "COc1cccc(-c2nc(-c3ccc(NS(=O)(=O)c4ccccc4)cc3)[nH]c2-c2ccnc(Br)c2)c1"
  cat: "inactive"
- molecule: "O=C(Nc1ccc(F)cc1F)c1cc(F)ccc1O"
  cat: "inactive"
- molecule: "C[C@H](C(=O)Nc1ccc(S(N)(=O)=O)cc1)S(=O)(=O)c1ccccc1"
  cat: "inactive"
- molecule: "CC(=O)CC(c1cccs1)c1c(-c2ccccc2)[nH]c2ccccc12 (stereo not given)"
  cat: "inactive"
- molecule: "CCCCOc1ccc(/C=N/NC(N)=S)cc1"
  cat: "inactive"
- molecule: "COc1ccc2sc3c(NCCCN(C)C)nc4ccccc4c3c(=O)c2c1"
  cat: "inactive"
- molecule: "Cc1nc2ccccc2c(/C=C/c2ccc(Cl)cc2)c1C(=O)/C=C/c1ccc(C(F)(F)F)cc1"
  cat: "active"
- molecule: "C=C1C(=O)O[C@H]2[C@H]1CC/C(COC(=O)NCCOCCOCC(=O)Nc1ccc(OC)c(C(N)=O)c1O)=C\\CC[C@@]1(C)O[C@@H]21"
  cat: "inactive"
- molecule: "c1ccc2cc(C[n+]3ccn(CCCCCCn4cc[n+](Cc5ccc6ccccc6c5)c4)c3)ccc2c1"
  cat: "inactive"
- molecule: "CCCCCCn1c(-c2ccc(C(=O)O/N=C(\\N)c3ccc(OC)cc3)cc2)nc(-c2ccccc2)c1-c1ccccc1"
  cat: "active"
- molecule: "CC(=O)OC[C@H]1OC(Sc2sc(C(=O)c3ccc(C)cc3)c(N)c2-c2nc3ccccc3s2)[C@H](OC(C)=O)[C@@H](OC(C)=O)[C@@H]1OC(C)=O (stereo not given in full)"
  cat: "inactive"
- molecule: "COc1cccc(Cc2cc(-c3ccccc3)nn(CC(=O)c3ccccc3)c2=O)c1"
  cat: "inactive"
- molecule: "COc1c(B(O)O)cc(C)cc1-c1nc2ccc3[nH]ncc3c2c2c1CCCC2"
  cat: "inactive"
- molecule: "COc1ccc(-c2c(C(=O)NS(C)(=O)=O)n(Cc3cccc(C(F)(F)F)c3)c3ccccc23)cc1"
  cat: "inactive"
- molecule: "O=c1c2cc(F)ccc2sc2c(NCCCNCCO)nc3ccc(F)cc3c12"
  cat: "inactive"
